# Tested on: OVCAR-4 ovarian
# TEST_SUMMARY: NCI-60 one-dose screen, 48 h (100 = growth as untreated, 0 = no growth, -100 = all killed)
# STUDY_CONDITIONS: 10 µM unless noted
The panel holds about 83,000 compounds, 20% with a hit somewhere; the sample as a whole holds those more often.
We use 70% as the dividing line for growth: on or above the line is condition met, below is condition not met.

MOLECULE: COc1cc(/C=C\C(=O)O)ccc1OCc1ccccc1
CLASS: condition met
--
MOLECULE: CC1(C)c2[nH]c3ccccc3c2C[C@]2(C)[C@H]3C(=O)C=C4[C@@H]5C[C@@](C)(C(N)=O)CC[C@]5(C)CC[C@@]4(C)[C@]3(C)CC[C@@H]12
CLASS: condition not met
--
MOLECULE: O=C(/C(=C/c1ccc([N+](=O)[O-])cc1)SCc1ccc(F)cc1)c1ccc(F)cc1
CLASS: condition met
--
MOLECULE: COC(=O)/C=C1\S/C(=N\NC(=O)c2cc3ccc2/C=C\c2ccc(cc2)/C=C\3)N(c2ccccc2)C1=O
CLASS: condition not met
--
MOLECULE: C=C1C(=O)O[C@H]2[C@H]1CC/C(CNC(=O)/C=C/c1cccc(OC)c1)=C\CC[C@@]1(C)O[C@@H]21
CLASS: condition not met
--
MOLECULE: CC1(C)CC(=O)C2=C(C1)N(c1ccc(F)cc1F)C(N)=C(C#N)C2c1cc(Br)ccc1F (centres undefined)
CLASS: condition met
--
MOLECULE: Cc1ccc(NC(C(=O)c2ccccc2)c2ccccc2)cc1 (centres undefined)
CLASS: condition not met
--
MOLECULE: COc1ccc2c(c1)oc1c(C)c3c(c(C)c12)C(=O)N(N)C3=O
CLASS: condition not met
--
MOLECULE: Cc1ccc(-n2cc(-c3ccccc3)c3c2N=NN2CCN=C32)cc1
CLASS: condition met
